System: SN12C renal
MEASUREMENT_DESCRIPTION: NCI-60 one-dose screen, 48 h
TEST_CONTEXT: 10 µM unless noted
Protocol: Growth inhibition of the SN12C human tumor cell line is measured as a screen for anti-cancer activity. Cells are grown in 96 well plates and exposed to the test compound for 48 hours. Compounds are tested at a single concentration, which is 10^-5 M for most compounds. The reported endpoint is percent growth (GI% or GIPRCNT), where numbers from 0 - 100% represent growth inhibition, and numbers from -100% - 0 represent cell death. For example, a value of 40 represents 60% growth inhibition. […]
About 83,000 compounds went through this panel and 20% of them were active in at least one assay; those are over-represented in the sample as a whole. Active and inactive are the calls of the source. How the source made its calls: active means growth percent below 10; inactive means the rest.
One label from this list, please: yes (1) (active), no (0) (inactive)

Some solved cases for reference:
| MOLECULE | ASSIGNED_LABEL |
| --- | --- |
| Cn1c(COC(=O)N2CCCCC2)nc2c(N3CCOCC3)nc(-c3ccccc3)nc21 | yes (1) |
| CCCN=C(N)c1ccc(NC(=O)c2ccc(C(=O)Nc3ccc(C(N)=NCCC)cc3)cc2)cc1 | no (0) |
| COc1cc(CCNc2nc3cc(N)cc(N)c3nc2-c2ccccc2)cc(OC)c1 | yes (1) |

Which outcome was entered for the molecule C[C@]12CCc3nc(Nc4cccc(O)c4)sc3C1=CC[C@@H]1[C@@H]2CC[C@]2(C)/C(=N\NC(N)=S)CC[C@@H]12 in this test?
no (0)

Recorded test outcome, item CC(N)C(=O)NNc1n[nH]c(=S)n1N (stereo not drawn)
no (0)

Could you check what this test reported for CN1CCN(Cc2ccc(NC(=O)c3cncc(C#Cc4cnccc4C(F)(F)F)c3)cc2C(F)(F)F)CC1 ?
no (0)

So what was the verdict on CC(=O)OC1CCC2(C)C(CCC3C4CC=C(C(C)=O)C4(C)OC(=O)CC32)C1 (stereo not drawn) in this test?
no (0)

For c1ccc(CCSc2ncnc3nc[nH]c23)cc1 , which call appears in the assay record?
no (0)

Identify the outcome logged in this assay for the molecule shown: COc1ccc(Cn2nc3c(c2-c2cc(OC)c(OC)c(OC)c2)-c2oncc2CC3)cc1
no (0)

Given Fc1ccccc1CSc1ncnc2nc[nH]c12 , state the outcome it received in this test.
no (0)

Recorded test outcome, item C=C(C)[C@@H]1CC[C@]2(C(=O)N3CCN(C)CC3)CC[C@]3(C)[C@H](CC[C@@H]4[C@@]5(C)CCC(=O)C(C)(C)[C@@H]5CC[C@]43C)[C@@H]12
no (0)

Look up the recorded call for O=C1C(=O)c2c(nc3ncccn23)-c2ccccc21 in this test.
yes (1)

Test call for this molecule, please: C=C(C)[C@@H]1CC[C@]2(C(=O)NCC(=O)OC)CC[C@]3(C)[C@H](CC[C@@H]4[C@@]5(C)Cc6c([nH]c7ccccc67)C(C)(C)[C@@H]5CC[C@]43C)[C@@H]12
no (0)

Per the records of this test, what outcome belongs to O=S(=O)(c1ccccc1)N1CCCc2ccccc21 ?
no (0)
